Just for reference, patent US7592478B2 is where these values come from.

Biological target: RAR gamma (Homo sapiens, UniProt P13631)
Sequence (P13631 185-419 limits assumed): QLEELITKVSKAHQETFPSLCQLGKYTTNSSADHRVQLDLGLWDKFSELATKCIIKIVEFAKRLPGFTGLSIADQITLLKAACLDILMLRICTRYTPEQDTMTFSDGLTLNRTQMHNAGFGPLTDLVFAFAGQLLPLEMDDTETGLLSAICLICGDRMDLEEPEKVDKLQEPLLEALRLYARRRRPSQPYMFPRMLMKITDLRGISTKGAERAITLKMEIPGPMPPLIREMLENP
Test: Transactivation test (luciferase reporter, stably transfected HeLa cells), RAR gamma
Conditions: Schild regression vs reference agonist 4-[2-(5,5,8,8-tetramethyl-5,6,7,8-tetrahydro-2-naphthyl)propenyl]benzoic acid, read-out: RAR gamma Kdapp
measurement type: Kd (nM)

Cc1ccc(C2=CCC(C)(C)c3cc([Se]C#Cc4ccc(C(=O)O)cc4)ccc32)cc1 | 2

[P] Cc1ccc(C2=CCC(C)(C)c3cc([Se]C#Cc4ccc(C(=O)O)c(F)c4)ccc32)cc1
[Q] CN(C)c1ccc(C2=CCC(C)(C)c3cc(C(O)C#Cc4ccc(C(=O)O)cc4)ccc32)cc1 (stereo not drawn)
Larger number for Kd: P , or Q ? // return label of chosen record
Q
(Q: 60 nM, P: 2 nM)

###

Target: UniProtKB P10826
Assay: Transactivation test (luciferase reporter, stably transfected HeLa cells), RAR beta
Details: Schild regression vs reference agonist 4-[2-(5,5,8,8-tetramethyl-5,6,7,8-tetrahydro-2-naphthyl)propenyl]benzoic acid, read-out: RAR beta Kdapp
Description: The activation of receptors with an agonist (activator) in HeLa cells leads to the expression of a reporter gene, luciferase, which, in the presence of a substrate, generates light. The activation of the receptors may thus be measured by quantifying the luminescence produced after incubating the cells in the presence of a reference agonist. […] The activity is measured by quantifying the reduction in light produced. […]
pKd: −log10 of the molar value.
measurement type: pKd

Cc1ccc(C2=CCC(C)(C)c3cc([Se]C#Cc4ccc(C(=O)O)cc4)ccc32)cc1 | 8.10

[A] CN(C)c1ccc(C2=CCC(C)(C)c3cc(C(O)C#Cc4ccc(C(=O)O)cc4)ccc32)cc1 (stereo not drawn)
[B] Cc1ccc(C2=CCC(C)(C)c3cc([Se]C#Cc4ccc(C(=O)O)c(F)c4)ccc32)cc1
Parameter metric = pKd. Return the lower-valued option from A and B . // return label of chosen record
A

###

Biological target: RAR beta (Homo sapiens, UniProt P10826)
Sequence (P10826 183-417 limits assumed): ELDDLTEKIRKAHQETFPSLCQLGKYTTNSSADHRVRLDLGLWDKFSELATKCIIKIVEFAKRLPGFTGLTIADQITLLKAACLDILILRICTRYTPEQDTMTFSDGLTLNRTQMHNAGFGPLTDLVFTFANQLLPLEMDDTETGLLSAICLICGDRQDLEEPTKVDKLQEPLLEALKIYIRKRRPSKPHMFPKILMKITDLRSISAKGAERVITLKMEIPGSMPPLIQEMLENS
Assay: Transactivation test (luciferase reporter, stably transfected HeLa cells), RAR beta
Type: cell-based
Settings: at the reference agonist concentration that gives 80% activation
measurement type: IC50 (nM)

Cc1ccc(C2=CCC(C)(C)c3cc([Se]C#Cc4ccc(C(=O)O)c(F)c4)ccc32)cc1 [Example 9] | 12.8

[I] Cc1ccc(C2=CCC(C)(C)c3cc([Se]C#Cc4ccc(C(=O)O)cc4)ccc32)cc1 [Example 1]
[II] CN(C)c1ccc(C2=CCC(C)(C)c3cc(C(O)C#Cc4ccc(C(=O)O)cc4)ccc32)cc1 (stereo not drawn) [Example 19]
Larger number for IC50: I , or II ? // return label of chosen record
II
(II: 192 nM, I: 12.8 nM)

###

Biological target: UniProtKB P10276
Sequence (P10276 183-417 limits assumed): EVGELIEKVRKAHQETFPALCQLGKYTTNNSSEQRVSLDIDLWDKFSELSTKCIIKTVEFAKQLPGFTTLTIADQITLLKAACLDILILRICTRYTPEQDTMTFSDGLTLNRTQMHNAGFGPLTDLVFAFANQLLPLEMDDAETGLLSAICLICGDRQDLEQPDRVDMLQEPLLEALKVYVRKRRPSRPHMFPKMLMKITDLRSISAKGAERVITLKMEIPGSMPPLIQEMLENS
Test: Transactivation test (luciferase reporter, stably transfected HeLa cells), RAR alpha
Conditions: at the reference agonist concentration that gives 80% activation
measurement type: IC50 (µM)

[P] CN(C)c1ccc(C2=CCC(C)(C)c3cc(C(O)C#Cc4ccc(C(=O)O)cc4)ccc32)cc1 (stereo not drawn)
[Q] Cc1ccc(C2=CCC(C)(C)c3cc([Se]C#Cc4ccc(C(=O)O)c(F)c4)ccc32)cc1
[R] Cc1ccc(C2=CCC(C)(C)c3cc([Se]C#Cc4ccc(C(=O)O)cc4)ccc32)cc1
Falling order of IC50, please. Please list the labels in the order you were asked to rank them.
P, Q, R
(P: 0.875 µM, Q: 0.21 µM, R: 0.0525 µM)
